Target: full-length beta-Catenin (Uniprot ID P35222) (Homo sapiens, UniProt P35222)
Construct: 10 nM full-length beta-Catenin (Uniprot ID P35222)
Sequence (P35222 1-781): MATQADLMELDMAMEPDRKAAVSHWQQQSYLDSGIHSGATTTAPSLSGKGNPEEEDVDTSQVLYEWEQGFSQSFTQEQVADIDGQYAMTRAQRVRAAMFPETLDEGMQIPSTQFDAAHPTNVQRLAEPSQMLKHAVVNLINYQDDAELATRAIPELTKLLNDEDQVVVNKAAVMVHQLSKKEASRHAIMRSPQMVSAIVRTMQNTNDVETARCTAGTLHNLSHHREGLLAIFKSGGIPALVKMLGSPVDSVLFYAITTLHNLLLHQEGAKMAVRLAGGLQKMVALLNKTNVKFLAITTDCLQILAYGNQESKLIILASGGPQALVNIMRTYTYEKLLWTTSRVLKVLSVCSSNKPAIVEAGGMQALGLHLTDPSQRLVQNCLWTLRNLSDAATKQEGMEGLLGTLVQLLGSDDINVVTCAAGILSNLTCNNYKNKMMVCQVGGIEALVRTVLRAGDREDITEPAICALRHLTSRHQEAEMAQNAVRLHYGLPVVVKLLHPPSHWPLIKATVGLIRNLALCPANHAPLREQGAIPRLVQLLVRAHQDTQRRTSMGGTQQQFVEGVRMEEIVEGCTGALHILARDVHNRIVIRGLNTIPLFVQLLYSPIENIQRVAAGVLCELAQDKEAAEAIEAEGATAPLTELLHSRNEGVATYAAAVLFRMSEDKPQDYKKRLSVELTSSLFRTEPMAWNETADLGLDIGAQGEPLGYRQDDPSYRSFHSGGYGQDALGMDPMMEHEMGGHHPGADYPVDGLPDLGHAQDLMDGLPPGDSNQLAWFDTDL
Assay: Fluorescence polarization IC50 (beta-catenin / 5FAM-TCF4 10-53 competition)
Assay type: binding
Settings: fluorescence polarization; read-out: beta-Catenin FP IC50
// values below are reported IC50
Report the value in nM with no unit label.

compound | output unit | IC50
CC(=O)N1CCC[C@]12CC=CCCCC1(CCCC=CCCCOC(=O)N3CC[C@@](C(=O)N[C@@H](Cc4ccsc4)C(=O)N[C@@H](Cc4csc5ccccc45)C(=O)N[C@@H](CO)C(N)=O)(C3)NC(=O)[C@H](CC(C)C)NC(=O)[C@H](Cc3ccccc3)NC(=O)[C@H](C)NC(=O)[C@H](C)NC(=O)[C@H]([C@@H](C)O)NC(=O)[C@H](CC(=O)O)NC1=O)NC(=O)[C@H](CC(C)(C)C)NC(=O)[C@H](CC(=O)O)NC2=O (some centres unmarked) | nM | 70

Item under review: CC(=O)N1CCC[C@]12CC=CCCCC1(CCCC=CCCCCCC[C@@](C)(C(=O)N[C@@H](Cc3ccccc3)C(=O)N[C@@H](Cc3csc4ccccc34)C(=O)N[C@@H](Cc3c[nH]cn3)C(N)=O)NC(=O)[C@H](CCC(N)=O)NC(=O)[C@H](Cc3ccccc3)NC(=O)[C@H](C)NC(=O)[C@H](C)NC(=O)[C@H](CCC(=O)O)NC(=O)[C@H](CC(=O)O)NC1=O)NC(=O)[C@H](C)NC(=O)[C@H](CC(=O)O)NC2=O (some centres unmarked) [I-419] . Reported IC50? 23

====

// values below are reported Solubility
Assay: Solubility in PBS
Assay type: physicochemical
Report the value in µM with no unit label.

molecule | Solubility / µM
CC(=O)N1CCC[C@]12CC=CCCCC1(CCCC=CCCCOC(=O)N3CC[C@@](C(=O)N[C@@H](Cc4ccsc4)C(=O)N[C@@H](Cc4csc5ccccc45)C(=O)N[C@@H](CCCCNC(=O)CN=[N+]=[N-])C(N)=O)(C3)NC(=O)[C@H](CC(N)=O)NC(=O)[C@H](Cc3ccccc3)NC(=O)[C@H](C)NC(=O)[C@H](C)NC(=O)[C@H](CC(=O)O)NC(=O)[C@H](CC(=O)O)NC1=O)NC(=O)[C@H](CC(C)(C)C)NC(=O)[C@H](CC(=O)O)NC2=O (stereo partly drawn) | 46
CC(=O)N1CCC[C@]12CC=CCCCC1(CCCC=CCCCCCC[C@@](C)(C(=O)N[C@@H](Cc3ccccc3)C(=O)N[C@@H](Cc3csc4ccccc34)C(=O)N[C@@H](Cc3c[nH]cn3)C(N)=O)NC(=O)[C@H](CCC(N)=O)NC(=O)[C@H](Cc3ccccc3)NC(=O)[C@H](C)NC(=O)[C@H](C)NC(=O)[C@H](CCC(=O)O)NC(=O)[C@H](CC(=O)O)NC1=O)NC(=O)[C@H](CC(C)C)NC(=O)[C@H](CC(=O)O)NC2=O (stereo partly drawn) | 10

Let us examine a further case.
Item under review: CC(=O)N1CCC[C@]12CC=CCCCC1(CCCC=CCCCCCC[C@@](C)(C(=O)N[C@@H](Cc3ccccc3)C(=O)N[C@@H](Cc3csc4ccccc34)C(=O)N[C@@H](CCC(N)=O)C(N)=O)NC(=O)[C@H](C(C)C)NC(=O)[C@H](Cc3ccccc3)NC(=O)[C@H](C)NC(=O)[C@H](C)NC(=O)[C@H](CC(=O)O)NC(=O)[C@H](CC(=O)O)NC1=O)NC(=O)[C@H](CCC(N)=O)NC(=O)[C@H](CC(=O)O)NC2=O (stereo partly drawn) [I-346] . Reported Solubility? 44
